# assayRemarks: Half life in human liver microsomes at 2 uM in presence of NADPH measured up to 40 mins
parameterMeasured: half-life at 40 min, 2 µM (min)
Express it in min; write the number only.

Lookup result for Fc1cc(Cl)c2[nH]cc(-c3ccc4ccccc4n3)c2c1 ; measured half-life at 40 min, 2 µM: 23
